Here the recorded return to baseline levels in saliva (time post-chewing) is given for each entry.
Settings: saliva
Respond with the bare value in h.

Here's what some known entries look like.
CN1CCC=C(C(=O)O)C1 :: 8
C=CCc1ccc(OC)c(O)c1 :: 2
COC(=O)C1=CCCNC1 :: 8
COC(=O)C1=CCCN(C)C1 :: 8

Next item in the queue.
Quick check: return to baseline levels in saliva (time post-chewing) of "O=C(O)C1=CCCNC1" ? 8

###

Conditions: saliva; after one serving of betel nut/quid; n=4
property measured: time of peak in saliva post-chewing

# annotated cases, reported time of peak in saliva post-chewing shown
CN1CCC=C(C(=O)O)C1 [arecaidine] :: ≤ 2 h
COC(=O)C1=CCCN(C)C1 [arecoline] :: ≤ 2 h
COC(=O)C1=CCCNC1 [guvacoline] :: ≤ 2 h
C=CCc1ccc(OC)c(O)c1 [chavibetol] :: 0.5 to 1 h

As a next step, examine the compound that follows.
// returns reported time of peak in saliva post-chewing for input O=C(O)C1=CCCNC1 [guvacine] ≤ 2 h
